Target: c-Src SH2;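 further: peptide library displayed on the E. coli surface as eCPX fusions, selected cells deep-sequenced, score is each peptide's frequency after selection divided by its frequency in the input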
Assay: SH2 binding enrichment of the phosphorylated peptide, bacterial display (enrichment ratio); higher = better substrate or ligand; peptides without Tyr show the background
Each entry below lists one item and its recorded SH2 binding enrichment value.
Quantity measured: SH2 binding enrichment

{"columns": ["Seq text", "Quantity measured", "Endpoint result"],
 "data": [
  ["ALRHFYKLNII [ETV6_Y402_YF]", "SH2 binding enrichment", 1.27],
  ["GSSEGYLHMVH [NIPBL_Y247_D246G]", "SH2 binding enrichment", 0.477],
  ["RSRSPYSPVFR [CDK13_Y399_L403F]", "SH2 binding enrichment", 0.463],
  ["EEGRVYVFRLS [ITGAE_Y549_YF]", "SH2 binding enrichment", 0.665],
  ["FKGKNYKPLDL [RPL35_Y78_K77N_YF]", "SH2 binding enrichment", 0.613],
  ["QQPGPYDRPGA [HNRNPH2_Y210_R206Q]", "SH2 binding enrichment", 0.857],
  ["FGCGMYSHLQG [LGR4_Y848_D844G_YF]", "SH2 binding enrichment", 1.1],
  ["EPSVDYCVVKI [CAD_Y735]", "SH2 binding enrichment", 0.684],
  ["SARHHYESLQT [BIN1_Y157]", "SH2 binding enrichment", 34.4],
  ["SLIDGYYRLTA [JAK2_Y372]", "SH2 binding enrichment", 2.57],
  ["MLEVPYVDHNS [F10_Y384_R387H]", "SH2 binding enrichment", 0.407],
  ["IVAREYFSEAD [CAMK2A_Y106_YF]", "SH2 binding enrichment", 0.566],
  ["GGQVFHNSEYG [FLT4_Y1333_Y1333H]", "SH2 binding enrichment", 0.474],
  ["QGIIIYRAAYF [SLC25A4_Y187]", "SH2 binding enrichment", 0.515],
  ["ARGTRYRFVSQ [UCN3_Y95_YF]", "SH2 binding enrichment", 0.458],
  ["DAVCFYRMENA [NPHS2_Y195_I192V_YF]", "SH2 binding enrichment", 0.437],
  ["AGLVQYFMEHH [PTPN11_Y80_E76G_YF]", "SH2 binding enrichment", 0.599],
  ["QKTGDYYDLYG [PTPN11_Y62_N58K]", "SH2 binding enrichment", 1.38],
  ["RHTRSYDFMEG [FGF7_Y56_YF]", "SH2 binding enrichment", 1.92],
  ["NHQYDYTFDWT [CSNK1A1_Y294]", "SH2 binding enrichment", 3],
  ["ISIFHYAKGQP [MPZ_Y82]", "SH2 binding enrichment", 0.7],
  ["GRKTLYSFFSP [UNG_Y8_Q4R]", "SH2 binding enrichment", 1.17],
  ["RRGTGYTLSLP [MAGEC3_Y152]", "SH2 binding enrichment", 0.358],
  ["HLQQSNLPRGT [TEX45_Y396_Y396N]", "SH2 binding enrichment", 0.748],
  ["ELELLYLDRNS [NYX_Y284]", "SH2 binding enrichment", 0.59],
  ["AARVSYWLASG [DCHS1_Y1582_R1583W]", "SH2 binding enrichment", 0.527],
  ["RLQAAYNLVKR [PFKM_Y103_R100Q]", "SH2 binding enrichment", 1.51],
  ["RIFDFYSARKA [STOX1_Y858_YF]", "SH2 binding enrichment", 0.529],
  ["SGFESYGSSSS [RPA2_Y9_Y14S]", "SH2 binding enrichment", 0.425],
  ["GQSKGYRPKLY [SIPA1L3_Y1376]", "SH2 binding enrichment", 0.531],
  ["TPTYPYLLPKS [PLD2_Y580]", "SH2 binding enrichment", 0.62],
  ["TLSGIYQYNIA [FOXL2_Y81_I84N]", "SH2 binding enrichment", 1.33],
  ["AVAFLYYKSIG [ADGRL4_Y301_V300L]", "SH2 binding enrichment", 0.461],
  ["DDHFTYSRFPW [LY75_Y888_YF]", "SH2 binding enrichment", 0.418],
  ["SSFDTYHLSRE [KIR3DL2_Y253_I252T_YF]", "SH2 binding enrichment", 0.701],
  ["NCFKYYMSDDI [ATRX_Y204]", "SH2 binding enrichment", 1.52],
  ["VSFDEYRFRSF [CFTR_Y515_V520F_YF]", "SH2 binding enrichment", 0.393],
  ["VVGMLYVGGLP [LAMA2_Y2886]", "SH2 binding enrichment", 0.461],
  ["SHSMRYFFTAV [HLA-C_Y31_D33F]", "SH2 binding enrichment", 1.25],
  ["AFPVSYSSSGA [RET_Y687]", "SH2 binding enrichment", 0.506],
  ["SHKELYKWFTS [DYNC1H1_Y3051_E3048K]", "SH2 binding enrichment", 0.777],
  ["SMGHRYIEVFK [HNRNPF_Y82]", "SH2 binding enrichment", 2.08],
  ["DPLLTYLFPPK [LMNA_Y481_R482L]", "SH2 binding enrichment", 0.574],
  ["WKKKIYEESST [MOCS2_Y170_E168K]", "SH2 binding enrichment", 0.415],
  ["PELINYHQPNS [BTK_Y361_H364P]", "SH2 binding enrichment", 0.704],
  ["LEDPMYDIIRD [RP9_Y142_H137L]", "SH2 binding enrichment", 1.67],
  ["RGRSTYYWPSP [GAGE12J_Y9_R13S]", "SH2 binding enrichment", 0.373],
  ["VKALKYKSMKI [ITGA11_Y1098_L1093V]", "SH2 binding enrichment", 1.14],
  ["TRSFKCLLLSM [NF1_Y491_Y491C_YF]", "SH2 binding enrichment", 0.912],
  ["TEAEPYYCSLR [NPHS1_Y1138_R1140C]", "SH2 binding enrichment", 1.22],
  ["NYYDLYGGEKF [PTPN11_Y66_D61N]", "SH2 binding enrichment", 1.84],
  ["DFEGLYQEGGG [TMEM159_Y159_E154D]", "SH2 binding enrichment", 0.453],
  ["EVGHVYLFLQP [ITGA2B_Y360_R358H]", "SH2 binding enrichment", 0.425],
  ["MTRDIYETDYY [INSR_Y1185]", "SH2 binding enrichment", 0.744],
  ["LDPMVYMNDTS [PTK2B_Y834_K838T]", "SH2 binding enrichment", 1.05],
  ["IVTLKYPIEHG [ACTB_Y69_L65V]", "SH2 binding enrichment", 0.45],
  ["IKIMGYFIRTI [IDS_Y490_S491F]", "SH2 binding enrichment", 1.04]
]}

The origin of these recorded values is the supplement of paper PMC10065799.
